These entries and their values trace back to paper PMC2807407.

- Assayed Target: T1, Dsk2-UBL (Saccharomyces cerevisiae, UniProt P48510 1-75)
- T1 sequence: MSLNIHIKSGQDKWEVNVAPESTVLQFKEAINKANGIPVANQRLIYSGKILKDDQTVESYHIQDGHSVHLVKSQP
- Test Details: NMR titration
pKd: −log10 of the molar value.
Measurement Name: pKd

INSERT INTO results (binder, measurement_name, readout_value) VALUES
  ('Rpn10 C-terminal construct Rpn10_(204-268) (domain or fragment, Saccharomyces cerevisiae, UniProt P38886 204-268, looked up) GSGGDSDANGTFMDFGVDPSMDPELAMALRLSMEEEQQRQERLRQQQQQQDQPEQSEYPEQHQDK', 'pKd', 5.46);
